# system.tested: B-RAF V600E (Homo sapiens, UniProt P15056, V600E)
# Construct: expressed in transfected cells; host or cells: T-Rex 293 cells (Invitrogen #R71007)
# Sequence (P15056 whole entry V600E): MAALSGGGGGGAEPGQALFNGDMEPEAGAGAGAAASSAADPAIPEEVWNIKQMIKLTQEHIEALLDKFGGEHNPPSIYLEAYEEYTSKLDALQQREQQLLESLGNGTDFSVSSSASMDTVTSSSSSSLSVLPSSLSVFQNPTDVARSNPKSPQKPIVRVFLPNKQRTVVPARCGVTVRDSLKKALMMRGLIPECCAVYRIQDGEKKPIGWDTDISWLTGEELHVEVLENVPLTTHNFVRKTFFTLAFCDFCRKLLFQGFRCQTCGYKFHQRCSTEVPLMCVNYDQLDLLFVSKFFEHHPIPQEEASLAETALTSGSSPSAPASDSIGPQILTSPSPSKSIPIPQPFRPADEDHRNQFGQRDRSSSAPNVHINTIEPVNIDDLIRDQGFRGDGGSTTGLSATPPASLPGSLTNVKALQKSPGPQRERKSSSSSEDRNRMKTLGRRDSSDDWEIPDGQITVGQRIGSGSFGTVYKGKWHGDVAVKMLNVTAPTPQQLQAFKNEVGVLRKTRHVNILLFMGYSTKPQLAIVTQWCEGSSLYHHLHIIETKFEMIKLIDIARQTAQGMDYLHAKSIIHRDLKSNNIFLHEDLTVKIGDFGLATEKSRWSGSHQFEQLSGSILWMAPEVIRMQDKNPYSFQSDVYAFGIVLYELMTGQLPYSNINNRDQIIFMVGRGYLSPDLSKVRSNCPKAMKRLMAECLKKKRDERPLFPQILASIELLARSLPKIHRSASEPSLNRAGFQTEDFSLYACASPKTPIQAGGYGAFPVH
# protocol.summary: Target protein degradation, assay A: T-Rex 293 cells, HA-B-RAF_V600E, 96 well format
# Format: cell-based
# condition.label: T-Rex 293 HA-B-RAF_V600E cells, 24 hours, Examples 1-82

| compound | DC50 |
| --- | --- |
| N#Cc1c(NS(=O)(=O)N2CC[C@@H](F)C2)ccc(F)c1Oc1ccc2ncn(-c3ccc(N4CCN(CC5CCN(c6ccc7c(c6)CN([C@H]6CCC(=O)NC6=O)C7=O)CC5)CC4)cc3)c(=O)c2c1 [Example 77] | 50 to 500 nM |
| N#Cc1c(NS(=O)(=O)N2CC[C@@H](F)C2)ccc(F)c1Oc1ccc2ncn(-c3ccc(N4CCN(CC5CCN(c6ccc7c(c6)CN(C6CCC(=O)NC6=O)C7=O)CC5)CC4)cc3)c(=O)c2c1 (stereo partly drawn) [Example 1] | 5 to 50 nM |
| N#Cc1c(NS(=O)(=O)N2CC[C@@H](F)C2)ccc(F)c1Oc1ccc2ncn(-c3ccc(N4CCN(C(=O)CC5(O)CCN(c6ccc(NC7CCC(=O)NC7=O)cc6F)CC5)CC4)cc3)c(=O)c2c1 (stereo partly drawn) [Example 67] | 50 to 500 nM |
| N#Cc1c(NS(=O)(=O)N2CC[C@@H](F)C2)ccc(F)c1Oc1ccc2ncn(-c3cnc(N4CCN(C(=O)CC5(O)CCN(c6ccc7c(c6)CN([C@H]6CCC(=O)NC6=O)C7=O)CC5)CC4)nc3)c(=O)c2c1 [Example 68] | 50 to 500 nM |
| N#Cc1c(NS(=O)(=O)N2CC[C@@H](F)C2)ccc(F)c1Oc1ccc2ncn(-c3ccc(N4CCN(CC5CCN(c6ccc(F)c(C(=O)NC7CCC(=O)NC7=O)c6)CC5)CC4)cc3)c(=O)c2c1 (stereo partly drawn) [Example 15] | > 500 nM |
| N#Cc1c(NS(=O)(=O)N2CC[C@@H](F)C2)ccc(F)c1Oc1ccc2ncn(-c3ccc(N4CCN(CC5CCN(c6ccc(NC7CCC(=O)NC7=O)cc6F)CC5)CC4)nc3)c(=O)c2c1 (stereo partly drawn) [Example 12] | 5 to 50 nM |
| N#Cc1c(NS(=O)(=O)N2CC[C@@H](F)C2)ccc(F)c1Oc1ccc2ncn(-c3ccc(N4CCN(CC5CCN(c6cccc7c6ccn7C6CCC(=O)NC6=O)CC5)CC4)cc3)c(=O)c2c1 (stereo partly drawn) [Example 74] | 50 to 500 nM |
| N#Cc1c(NS(=O)(=O)N2CC[C@@H](F)C2)ccc(F)c1Oc1ccc2ncn(-c3cnc(N4CCN(CC5CN(c6ccc7c(c6)CN(C6CCC(=O)NC6=O)C7=O)C5)CC4)nc3)c(=O)c2c1 (stereo partly drawn) [Example 9] | 50 to 500 nM |
| N#Cc1c(NS(=O)(=O)N2CC[C@@H](F)C2)ccc(F)c1Oc1ccc2ncn(-c3ccc(N4CCN(CC5CCN(c6ccc(C7CCC(=O)NC7=O)cc6F)CC5)CC4)nc3)c(=O)c2c1 (stereo partly drawn) [Example 14] | 50 to 500 nM |
| N#Cc1c(NS(=O)(=O)N2CC[C@@H](F)C2)ccc(F)c1Oc1ccc2ncn(-c3ccc(N4CCN(C(=O)CC5(O)CCN(c6ccc(C7CCC(=O)NC7=O)cc6F)CC5)CC4)nc3)c(=O)c2c1 (stereo partly drawn) [Example 69] | 50 to 500 nM |
| N#Cc1c(NS(=O)(=O)N2CC[C@@H](F)C2)ccc(F)c1Oc1ccc2ncn(-c3ccc(N4CCC(CN5CCC(c6ccc7c(c6F)CN(C6CCC(=O)NC6=O)C7=O)CC5)CC4)cc3)c(=O)c2c1 (stereo partly drawn) [Example 79] | 50 to 500 nM |
| N#Cc1c(NS(=O)(=O)N2CC[C@@H](F)C2)ccc(F)c1Oc1ccc2ncn(-c3ccc(N4CCC(CN5CCC(c6ccc7c(c6)CN([C@H]6CCC(=O)NC6=O)C7=O)CC5)CC4)cc3)c(=O)c2c1 [Example 81] | 50 to 500 nM |
